Source of measurements: ChEMBL document CHEMBL1128597

assay_method_text: t1/2 in monkey liver microsomes
Type: ADME, Microsome
condition_info: simiiformes
quantity_measured: half-life (h)

I = Cc1cc(CCCOc2c(C)cc(-c3noc(C(F)F)n3)cc2C)on1
II = Cc1cc(CCCOc2c(C)cc(-c3noc(C#N)n3)cc2C)on1
III = Cc1cc(CCCOc2c(C)cc(-c3noc(C)n3)cc2C)on1
Prompt: Kindly provide a descending ordering of the above compounds based on their half-life. Would you mind listing the labels in the order asked for?
Response: I, III, II
(I: 1.42 h, III: 0.45 h, II: 0.283 h)

P = COc1nc(-c2cc(C)c(OCCCc3cc(C)no3)c(C)c2)no1
Q = CCc1cc(CCCOc2c(C)cc(-c3noc(C)n3)cc2C)on1
R = Cc1nc(-c2cc(C)c(OCCCc3cccc(F)n3)c(C)c2)no1
S = Cc1cc(CCCOc2c(C)cc(-c3noc(C4CC4)n3)cc2C)on1
T = CCc1cc(CCCOc2c(C)cc(-c3noc(C4CC4)n3)cc2C)on1
Prompt: Order by half-life, ascending. As an answer, provide the labels arranged in the order called for.
Response: Q, R, P, T, S

I = Cc1cc(CCCOc2c(C)cc(-c3noc(CC(F)(F)F)n3)cc2C)on1
II = Cc1ccc(CCCOc2c(C)cc(-c3noc(C(F)(F)F)n3)cc2C)cn1
III = Cc1ccc(CCCOc2c(C)cc(-c3noc(C)n3)cc2C)cn1
IV = Cc1cc(CCCOc2c(C)cc(-c3noc(CF)n3)cc2C)on1
Prompt: Reorder: half-life, max to min. Order the labels as requested and give them as your answer.
Response: II, III, I, IV
